Just for reference, patent US8697649B2 is where these values come from.

activity of insulin receptor tyrosine kinase overview
Target of assay: insulin receptor tyrosine kinase (Homo sapiens, UniProt P06213)
Experimental protocol: Receptor binding assay by insulin receptor tyrosine kinase activity
Type: biochemical
Test context: poly(Glu,Tyr) substrate, [γ-32P]ATP
Answer in U/ml, number only, no unit symbol.

>  <Chain>
RYKYQCFYI (optimal docking polypeptide of insulin receptor) [IRBP-9B]

>  <Endpoint value>
79.76

$$$$
>  <Chain>
RYKYQWWYI (optimal docking polypeptide of insulin receptor) [IRBP-9C]

>  <Endpoint value>
44.18

$$$$
>  <Chain>
RYKYQCWYI (optimal docking polypeptide of insulin receptor) [IRBP-9D]

>  <Endpoint value>
65.95

$$$$

# get_value(readout='activity of insulin receptor tyrosine kinase', item= RYKYQWFYI (optimal docking polypeptide of insulin receptor) [IRBP-9A] )
40.34

---

Target of assay: insulin receptor (Homo sapiens)
Construct: endogenous in cells; host or cells: IM-9 human lymphocyte cell line
Experimental protocol: Whole cell receptor binding assay with 125I-labeled insulin (IM-9 cells)
Test context: IM-9 cells, 16° C., 90 min
Method: After incubation, the cells were chilled, centrifuged at 2000 rpm for 10 min at 4° C., and the pellets were washed twice with an ice-cold wash buffer (10 mmol/L Tris and 150 mmol/L NaCl, pH 7.6). The pellet was counted by a gamma counter. The assays were performed at least three times for each polypeptide. […] The lower value of EC50 represents a stronger effect on promoting the binding.
Where no end group is shown, it is not given here.
Reported EC50 by item:

>  <Chain>
DFRCDRVRVWVTERGIVARPPTIG [IRBP-45-68]

>  <EC50>
> 25 nM

$$$$
>  <Chain>
VIIKVGSGATKDFRCDRVR [IRBP-34-52]

>  <EC50>
> 25 nM

$$$$
>  <Chain>
IVYQVPTIG [IRBP-MT]

>  <EC50>
0.77 nM

$$$$

What value of EC50 has been recorded for this entry: IVARPPAIG [IRBP-MC]
0.86 nM
